# Test system: MiaPaCa-2 pancreatic cancer cells
# Procedure Summary: QTX125-containing combination therapy, hexosaminidase cell viability
# Type: cell-based
# Condition Description: Homo sapiens, MIA PaCa-2, MiaPaCa-2; + sorafenib at EC25 dose (4.2 μM)
pEC50: −log10 of the molar value.

Structure As Smiles | pEC50
O=C(NO)c1ccc(CNC(=O)c2[nH]c(-c3ccc(O)cc3)cc2-c2ccoc2)cc1 | 6.59

----------
# Tested on: Hep-G2 hepatic cancer cells
# Procedure Summary: QTX125-containing combination therapy, hexosaminidase cell viability
# Type: cell-based
# Condition Description: Homo sapiens, HepG2, Hep-G2; + bortezomib at EC25 dose (0.014 μM)
pEC50: −log10 of the molar value.

Structure As Smiles | Study System | pEC50
O=C(NO)c1ccc(CNC(=O)c2[nH]c(-c3ccc(O)cc3)cc2-c2ccoc2)cc1 | Hep-G2 hepatic cancer cells | 6.63

----------
# Test system: MiaPaCa-2 pancreatic cancer cells
# Procedure Summary: QTX125-containing combination therapy, hexosaminidase cell viability
# Type: cell-based
# Condition Description: Homo sapiens, MIA PaCa-2, MiaPaCa-2; no second agent (control of Table 5.2.3)

Compound | EC50 (nM)
O=C(NO)c1ccc(CNC(=O)c2[nH]c(-c3ccc(O)cc3)cc2-c2ccoc2)cc1 [QTX125] | 230

----------
# Tested on: SK-OV-3 ovarian cancer cells
# Procedure Summary: QTX125-containing combination therapy, hexosaminidase cell viability
# Type: cell-based
# Condition Description: Homo sapiens, SK-OV-3, SK-Ov-3; + sorafenib at EC75 dose (21.6 μM)
pEC50: −log10 of the molar value.

Compound | pEC50
O=C(NO)c1ccc(CNC(=O)c2[nH]c(-c3ccc(O)cc3)cc2-c2ccoc2)cc1 [QTX125] | 6.39

----------
# Test system: Panc-1 pancreatic cancer cells
# Procedure Summary: QTX125-containing combination therapy, hexosaminidase cell viability
# Format: cell-based
# Condition Description: Homo sapiens, PANC-1, Panc-1; + bortezomib at EC50 dose (0.009 μM)
# Description: To assess the oncolytic efficacy of QTX125-containing combination therapies in vitro, colonic, pancreatic, hepatic and ovarian tumour cells were administered sorafenib, gemcitabine or bortezomib at EC25, EC50 and EC75 doses. QTX125 was co-administered in order to produce a dose response curve. […] For the hexosaminidase assay, media containing QTX125 and the test chemotherapeutic agents was removed, and cells were washed once with PBS. […] Absorbance at 410 nm was recorded using a plate reader. […]
Property Label: EC50

Molecule | Property Label | Result
O=C(NO)c1ccc(CNC(=O)c2[nH]c(-c3ccc(O)cc3)cc2-c2ccoc2)cc1 [QTX125] | EC50 | 5.48 µM

----------
# Test system: Hep-G2 hepatic cancer cells
# Procedure Summary: QTX125-containing combination therapy, hexosaminidase cell viability
# Assay type: cell-based
# Condition Description: Homo sapiens, HepG2, Hep-G2; + sorafenib at EC75 dose (6.4 μM)
Property Label: EC50

Molecule | Study System | Property Label | Result
O=C(NO)c1ccc(CNC(=O)c2[nH]c(-c3ccc(O)cc3)cc2-c2ccoc2)cc1 [QTX125] | Hep-G2 hepatic cancer cells | EC50 | 87.2 nM

----------
# System: MiaPaCa-2 pancreatic cancer cells
# Procedure Summary: QTX125-containing combination therapy, hexosaminidase cell viability
# Type: cell-based
# Condition Description: Homo sapiens, MIA PaCa-2, MiaPaCa-2; + bortezomib at EC25 dose (0.007 μM)
pEC50: −log10 of the molar value.
Property Label: pEC50

Compound | Measured Number
O=C(NO)c1ccc(CNC(=O)c2[nH]c(-c3ccc(O)cc3)cc2-c2ccoc2)cc1 [QTX125] | 6.62
